# maps each entry to its z-score
Test: Plasmodium falciparum growth inhibition, primary screen, strain 3D7, DAPI fluorescence, 100 nL (AID 1184);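 note: parasites grown inside human red blood cells in medium with human serum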
Conditions: P. falciparum 3D7 growth, 3 d, higher = more signal
Parameter: z-score

>>> print(df.to_string())
                                   compound  parameter  reported
0  COC(=O)CC=C[C@@H](C)[C@@H](C=NO[C@@H]1O[C@H](COC(C)=O)[C@@H](OC(C)=O)[C@H](OC(C)=O)[C@H]1OC(C)=O)OC    z-score   -0.0925
1  CCC1=NOC(CCC2CC(OC(=O)NCc3cccc4c3OCO4)CC3(CCCC(COC(=O)NCCc4ccccc4OC)O3)O2)C1 (configuration not stated)    z-score     -0.95
2  CC(C)(C)N1C(=O)[C@H]2[C@H]3[C@H](O)[C@H](O)CC(=NO[C@@H]4O[C@H](CO)[C@@H](O)[C@H](O)[C@H]4O)[C@H]3CC[C@H]2C1=O    z-score     -1.62
3  CO[C@H]1COC(=O)[C@@H](C)COC(=O)[C@@H](OCc2ccccc2)C=C[C@@H]1C    z-score     -0.66
4  Cc1ccc(S(=O)(=O)N[C@H]2COC(=O)CC=C[C@@H](C)COC(=O)CC=C[C@@H]2C)cc1    z-score     0.641
5  O=C1C[C@@H](O)[C@@H](O)[C@@H]2[C@@H]3C(=O)N(C[C@@H]4CCCO4)C(=O)[C@@H]3CC[C@@H]12    z-score    -0.223
6  CCOC(=O)C1=NO[C@]2(C=C(Br)C3(OCCCO3)[C@H]3O[C@H]32)C1    z-score      0.99
